assay: yeast display, Sf9 membrane polyspecificity reagent, FACS + sequencing; frameworks hold sequencing errors
measurementLabel: polyreactivity (PSR sort gate)

Consider the reported polyreactivity (PSR sort gate) for these sequences:
recordSequence	measurementLabel	observedValue
QVQLVESGGGLVQAGGSLRLSCAASGRIFWTNAMGWYRQEPGKERELVAAISYNGASTFYADSVKGRFTISLDNAKNTVNLQMNSLKPEDTAVYSCNAYSSRYRYNYWGQGTQVTVSS	polyreactivity (PSR sort gate)	high polyreactivity
QVQLVESGGGLVQAGGSLRLSCAASGRTFGKYAMGWYRQAPGKERELVASITFSSGSTYYADSVKGRFTISRDNAKNTVYLQMNSLKPEDTAVYYCAKRGWGIYDYWGQGTQVTVSS	polyreactivity (PSR sort gate)	low polyreactivity
QVQLVESGGCLVQAGGSLSLSCAASGFIFDHNAMGWYRQAPGKERELVAAITWRGDSTYYADSVKGRFTISRDTAKNSVYVQMNSLKPEDTAVYYCNADAILVYYGKLDYWGQGTQVTVSS	polyreactivity (PSR sort gate)	low polyreactivity
QVQLVESGGGLVQAGGSLRLSCAASGRTLYVYTMGWYRQAPGKERELVASISSGVGTNYADSVKGRFTISRDNAKNTVYLQMNSLKPEDTAVYYCAARFRYYRHYYWGQGTQVTVSS	polyreactivity (PSR sort gate)	high polyreactivity

For each of the sequences below, state polyreactivity (PSR sort gate).
1. QVQLVESGGGLVQAGGSLRLSCAASGFIFDYNAMGWYRQAPGKERELVAAISWSGSRTYYAVSVKGRFTISRDNAKNTVYLQMNSLKPEDTAVYYCAAEWSGEAAWQVGAEDDYWGQGTQVTVSS
2. QVQLVESGGGLVQAGGSLRLICAASGSTFIKYTMGWYRPAPGKERELVAAISRIGGSTYYADSVKGRFTISRDNAKNTVYLQMNSLKPEDTAVYYCAAPYPIGHDWGQGTQVTVSS

Ans:
1. low polyreactivity
2. low polyreactivity

* * *

assay: yeast display, Sf9 membrane polyspecificity reagent, FACS + sequencing; frameworks hold sequencing errors
measurementLabel: polyreactivity (PSR sort gate)

recordSequence	polyreactivity (PSR sort gate)
QVQLVESGGGLVQAGGSLRLSCAASGSIFGGYAMGWYRQAPCQDRELVAAISTRGGSTYYADSVKGRFTISRDNAKNTVYLQMNSQKPEDTAVYYCAADYLDSSYGYVYGWDDYWGQGTQVNVSS	low polyreactivity
QVQLVESGGGLVQAGGSLRLSCAASGSIFYGYAMGWYRQAAGNERELVAAITTGGSTYCADSVKGRFTISRDNAKNTVYLQMNSLKPEDTAVYYCAAKYYTGGSFEMYYWGQGNQVTVSS	high polyreactivity
QVQLVESGGGLVQAGGSLRLSCAASGRIFVPNAMGWYRQAPGKERELVAAISSSGGSTYYADSVKGRFTISRDNAKNTVYLQMNSLKPEDTAVYDCNKVQSTANDYWGQGTQVTVSS	low polyreactivity
QVHLVESGGGLVQAGGSLRLSCAASGFTFIRNGMGSYRQAPGKERELVAAINSRGGNTYYADSVKGRFTISRDNAKNTVYLQMNSLKPEDTAVYYCNRVVQRWSTQYGYWGQGTQVTVSS	high polyreactivity
QVQLVESGGGLVQAGGSLSLSCAASGSTFYSNAMGWYRQAPGKERELVAAISIGGSTYYADSVKGRFTISRDNAKNTVYLQMNSLKPEDTAVYYCAVDYRHSSSWNAGRWEMYYWGQGTQVTVSS	low polyreactivity
QVQLVESGGGLVQAGGSLRLSCAASGFTFYRNARGWYRQAPGKERELVAAISISGGSTYYADSVKGRFTISRDNAKNTVYLQMNSLKPEDTAVYYCAAYYYRDRYSRVKVTYWGQGTQVTVSS	high polyreactivity

# return polyreactivity (PSR sort gate) for each item in the list
1. QVQLVDSGGGLVQAGGSLRLSCAASGGILKCYYMGRYRQATGKEMEFVSPITWSAGSTYYADSVKGRFTISRDNAKNTVYLQMNSLKPEDTAVHYCNVDWYPRGPHTVVFYDVSPYDYWGQGTQVTVSS
2. QVQLVDSRGGLVQAGGSLRLSCAASGIIFGYYAMGWYRQAPGKERELVAAITWSGGSTYYADSVKGSFTISRDNAKNTVYLQMNSLKPEDTAVYYCAASAYVQPYDYWGQGTQVTVSS

Ans:
1. high polyreactivity
2. high polyreactivity

Taken from the nanobody polyreactivity screen of Harvey et al. (2022).
